Test: yeast display, Sf9 membrane polyspecificity reagent, FACS + sequencing; frameworks hold sequencing errors
measuredAttribute: polyreactivity (PSR sort gate)

Example cases with answers are listed next.
[in] Quick one: polyreactivity (PSR sort gate) of QVQLVESGGGLVQAGGSLRLSCAPSGSIFIRNAMGWYRQAPGKERELVAAISGSGSSTYYADSVKGRFTISRDNAKNTVYLQMNSLKPEDTAVYYCNTDRTHSYQYGGYDYWGQGTQVTVSS ?
[out] low polyreactivity

[in] Also QVQLVESGGGLVQAGGSLRLSCAASGRIFYKYAMGWYRQAPGKERELVAGISRRGGTTNYADSVKGRFTNSRDNAKNTVYLQMNSLKPEDTAVYYCAVRPLYDRRYTAVRRYDYWGQGTQVTVSS , if possible.
[out] high polyreactivity

[in] Also QVQLVESGGGLVQAGGSLRLSCAASGRIFSYYDMGWYRQAPGKERELVAAITWGGGSTYYADSLKGRFTISRDNAKNTVYLHMNSLKPEDNAVFYSAADWSPSIWEYDYWGQGTEVTVSS , if possible.
[out] low polyreactivity

[in] Also QVQRVESGGGLVQAGGSLRLSCAASGIIFRGYAMGWYRQAPGKERELVAAITSSGARTYYADSVKGRFTISRDNAKNTVYLQMNSLKPDDTAVYYCNATSSVRRYDSWGQGTQVTVSS , if possible.
[out] high polyreactivity

Continuing:
[in] Quick one: polyreactivity (PSR sort gate) of QVQLVESGGGLVQAGGSLRLSCAASGSTFSRYTMGWYRQAPGKERELVASITRGGSTNYADSVKGRFTISRDNAKNTVYLQMNSLKPEDTAVYYCAARTARVSRYDYWGQGTQVTVSS ?
[out] high polyreactivity

* * *

Test: yeast display, Sf9 membrane polyspecificity reagent, FACS + sequencing; frameworks hold sequencing errors
measuredAttribute: polyreactivity (PSR sort gate)

Example cases with answers are listed next.
[in] Quick one: polyreactivity (PSR sort gate) of QVQLVESGGGLVQAGGSRRLSCAASGRIFSQNTRGCYRQAPAKERELVAVISWRCGRTSYSDSVKGRFTISRDNSKNTVFLKMKSLKQEDTAVYYCAASAKLHYYRTYRYNYWGQGTQVTVSS ?
[out] high polyreactivity

[in] Also QVQLVESGGGLVQAGGRLRLSCAATGRTFWENAMGWYRQAPGKERELVAAISGDSGSTYYADSVKGRFTISRDNAKNTVYLQMNSLKPEDTAVYYCAADSDRDDSYPYYYWGQGTQVTVSS , if possible.
[out] low polyreactivity

[in] Also QVQLVESGGGLVQAGGSLRLSCAASGRTFATYAMGWYRQAPGKERELVAAITSGGSTYYADSVKGRFTISRDNAKNTVYLQMNSLKPEDTAVYYCAAARKYYGYNYWGQGTQVTVSS , if possible.
[out] high polyreactivity

[in] Also QVQLVESGGGLVQAGGSLRLSSAASGSIFTGSALGWYRQAPGKEREFFARITKRGVSTYYADSVKGRFTISRDKAKNTVYLHMNSLKPEDTAVYYCNADRKFPYGSYETHDYWGQGPQVTVSS , if possible.
[out] high polyreactivity

As a next step, examine the sequence that follows.
[in] Quick one: polyreactivity (PSR sort gate) of QVQLVESGAGLVQAGGSLRLSCAASGFTFYDYAMGWYRQAPGKERELVAAISRGGGSTYYADSVKGRFTISRDNAKNTVYLQMNSLKPEDTAVYYCNAALTRVSRFWGGDYYYWGQGTQVTVSS ?
[out] high polyreactivity
